Source of measurements: patent US20160279215A1

Target: HLA-A*02:01 (Homo sapiens, UniProt P04439, D140Y/D185E/D98H/E176V/E277Q/G131W/G231S/I119V/I121R/I166T/I218V/L300P/L318F/N151K/N90K/P208A/P217A/Q86G/Q94H/R138H/R169H/T345S)
Construct: made in house
Test: MHC binding assay: UV-ligand exchange with β2m ELISA (peptide exchange yield)
Conditions: binding to HLA-A*02:01 evaluated by peptide exchange yield (UV-ligand exchange, β2m ELISA)
Assay Endpoint: Peptide exchange

213 (ILAVDGVLSV; listed as Homo sapiens) [compound 213]: +++ (≧50 = +++)
225 (FLPQPVPLSV; listed as Homo sapiens) [compound 225]: +++ (≧50 = +++)
30 (IITEVITRL; listed as Homo sapiens) [compound 30]: +++ (≧50 = +++)
